Sourced from paper PMC3695512

- target-under-test: T1, Hera_RBD_dC-tail (Thermus thermophilus, UniProt O07897 424-491, del492-510)
- T1 sequence: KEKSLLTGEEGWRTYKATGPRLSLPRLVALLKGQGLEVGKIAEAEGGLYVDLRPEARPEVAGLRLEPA
- experimental-details: fluorescence anisotropy; 5 mM Mg2+; Anisotropy: 50 mM Tris/HCl pH 7.5, 150 mM NaCl, 5 mM MgCl2 (Fig 2), 25 C, 50 nM RNA; EMSA: same Tris/NaCl, 12% glycerol, 25 C; NMR: 25 mM Bis-Tris/HCl pH 6.0, 50 mM NaCl, 10% D2O, 37 C
- setup-conditions: protein: recombinant; label: 5'-fluorescein; hairpin with 5' single strand
recorded-endpoint: pKd
Answers are plain numbers, as −log10 of the molar value.

In: Respond only with pKd recorded for GCAGGUCCCAAGGGUUGGGCUGUUCGCCCAUU (structured_RNA) [32mer]
Out: 4.89
